Biological target: C-C chemokine receptor type 2 (Homo sapiens)
Test: Antagonist activity at CCR2 in THP1 cells assessed as inhibition of MCP1-induced Ca2+ flux
Format: functional, cell-based, THP-1
measured endpoint: IC50 (nM)

{"columns": ["structure smiles string", "system name", "IC50 (nM)"],
 "data": [
  ["Cc1ccc(CNC[C@H](NC(=O)CNC(=O)c2cccc(C(F)(F)F)c2)C(N)=O)c(C)c1", "C-C chemokine receptor type 2 (Homo sapiens)", 69],
  ["CCNc1cc(C(=O)NCC(=O)N[C@@H](CNCc2ccc(C)cc2C)C(=O)NC(C)(C)C)cc(C(F)(F)F)c1", "C-C chemokine receptor type 2 (Homo sapiens)", 58],
  ["Cc1ccc(CNC[C@H](NC(=O)CNC(=O)c2cc(C(F)(F)F)ccc2NCc2ccccc2)C(=O)NC(C)(C)C)c(C)c1", "C-C chemokine receptor type 2 (Homo sapiens)", 57],
  ["Cc1ccc(CNC[C@H](NC(=O)CNC(=O)c2cccc(C(F)(F)F)c2)C(=O)NC(C)(C)C)c(C)c1", "C-C chemokine receptor type 2 (Homo sapiens)", 52],
  ["Cc1ccc(CNC[C@H](NC(=O)CNC(=O)c2cc(N)cc(C(F)(F)F)c2)C(=O)NC(C)(C)C)c(C)c1", "C-C chemokine receptor type 2 (Homo sapiens)", 52]
]}

[P] Cc1ccc(CNC[C@H](NC(=O)CNC(=O)c2cc(C(F)(F)F)ccc2NC(=O)NC(C)C)C(=O)NC(C)(C)C)c(C)c1
[Q] CCNc1ccc(C(F)(F)F)cc1C(=O)NCC(=O)N[C@@H](CNCc1ccc(C)cc1C)C(=O)NC(C)(C)C
[R] Cc1ccc(CNC[C@H](NC(=O)CNC(=O)c2cc(C(F)(F)F)ccc2N)C(=O)NC(C)(C)C)c(C)c1
Prompt: # ascending order, key=IC50 To answer, write out the labels according to the requested order.
Completion: R, P, Q
(R: 8 nM, P: 58 nM, Q: 84 nM)

###

Target: C-C chemokine receptor type 2 (Homo sapiens, UniProt P41597)
Sequence (P41597 whole entry): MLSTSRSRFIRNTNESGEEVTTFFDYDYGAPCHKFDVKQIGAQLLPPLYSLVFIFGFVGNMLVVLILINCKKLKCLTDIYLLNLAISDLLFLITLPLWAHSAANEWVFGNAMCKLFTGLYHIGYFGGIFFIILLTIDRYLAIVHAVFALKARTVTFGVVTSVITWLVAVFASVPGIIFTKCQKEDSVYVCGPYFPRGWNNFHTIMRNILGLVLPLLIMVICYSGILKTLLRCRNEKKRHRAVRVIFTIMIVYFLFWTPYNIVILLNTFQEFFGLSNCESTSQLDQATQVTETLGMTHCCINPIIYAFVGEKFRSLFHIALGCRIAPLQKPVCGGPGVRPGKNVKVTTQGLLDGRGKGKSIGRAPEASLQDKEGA
Test: Displacement of [125]MCP1 from CCR2 in human PBMCs
measured endpoint: IC50 (µM)

[1] CCCCc1ccc(CNC[C@H](NC(=O)CNC(=O)c2cccc(C(F)(F)F)c2)C(=O)NC(C)(C)C)cc1
[2] CCNC(=O)C(C)(CNCc1ccc(C)cc1C)NC(=O)CNC(=O)c1cc(C(F)(F)F)ccc1N (racemic)
[3] Cc1ccccc1CNC[C@H](NC(=O)CNC(=O)c1cccc(C(F)(F)F)c1)C(=O)NC(C)(C)C
[4] Cc1ccc(CNC[C@@H](NC(=O)CNC(=O)c2cccc(C(F)(F)F)c2)C(N)=O)c(C)c1
Prompt: Lab note: rank above entries, IC50 ascending. To answer, write out the labels according to the requested order.
Completion: 3, 4, 1, 2

###

Biological target: C-C chemokine receptor type 2 (Homo sapiens)
Assay: Displacement of [125]MCP1 from CCR2 in human PBMCs
measured endpoint: IC50 (nM)

Sample records with IC50:
{"columns": ["structure smiles string", "measured endpoint", "reported value"],
 "data": [
  ["Cc1ccc(CNC[C@@H](NC(=O)CNC(=O)c2cccc(C(F)(F)F)c2)C(=O)NC(C)(C)C)c(C)c1", "IC50", 110],
  ["CON(C)C(=O)[C@H](CNCc1ccc(C)cc1C)NC(=O)CNC(=O)c1cccc(C(F)(F)F)c1", "IC50", 110]
]}

[I] Cc1ccc(CNC[C@H](NC(=O)CNC(=O)c2cc(C(F)(F)F)ccc2NC(=O)OC(C)C)C(=O)NC(C)(C)C)c(C)c1
[II] Cc1ccc(CNC[C@H](NC(=O)CNC(=O)c2cccc(C(F)(F)F)c2)C(=O)NC2CCCC2)c(C)c1
Prompt: Compare I and II and name the one whose reported IC50 is smaller. When you have decided, please share the label of that item.
Completion: I
(I: 65 nM, II: 99 nM)

###

Target: C-C chemokine receptor type 2 (Homo sapiens, UniProt P41597)
Test: Displacement of [125]MCP1 from CCR2 in human PBMCs
pIC50: −log10 of the molar value.
measured endpoint: pIC50

{"columns": ["structure smiles string", "pIC50"],
 "data": [
  ["Cc1ccc(CNC[C@H](NC(=O)CNC(=O)c2cccc(C(F)(F)F)c2)C(=O)NC(C)(C)C)c(C)c1", 7.32]
]}

[a] COc1ccc(CNC[C@H](NC(=O)CNC(=O)c2cccc(C(F)(F)F)c2)C(=O)NC(C)(C)C)c(C)c1
[b] Cc1ccc(CNC[C@H](NC(=O)CNC(=O)c2cccc(OC(F)(F)F)c2)C(=O)NC(C)(C)C)c(C)c1
Prompt: Between the entries labelled a and b , which has a larger pIC50 value on record? When you have decided, please share the label of that item.
Completion: a

###

Biological target: C-C chemokine receptor type 2 (Homo sapiens)
Assay: Displacement of [125]MCP1 from CCR2 in human PBMCs
pIC50: −log10 of the molar value.
measured endpoint: pIC50

{"columns": ["structure smiles string", "system name", "reported value"],
 "data": [
  ["CN(C)c1ccc(CNC[C@H](NC(=O)CNC(=O)c2cccc(C(F)(F)F)c2)C(=O)NC(C)(C)C)cc1", "C-C chemokine receptor type 2 (Homo sapiens)", 6.37],
  ["Cc1ccc(CNC[C@H](NC(=O)CNC(=O)c2cccc(C(F)(F)F)c2)C(=O)N2CCOCC2)c(C)c1", "C-C chemokine receptor type 2 (Homo sapiens)", 6.31],
  ["Cc1ccc(CNC[C@H](NC(=O)CNC(=O)c2cc(N)cc(C(F)(F)F)c2)C(=O)NC(C)(C)C)c(C)c1", "C-C chemokine receptor type 2 (Homo sapiens)", 7.64]
]}

[A] Cc1ccc(CNC[C@H](NC(=O)CNC(=O)c2cccc(C(F)F)c2)C(=O)NC(C)(C)C)c(C)c1
[B] Cc1ccc(CNC[C@H](NC(=O)CNC(=O)c2cccc(C(F)(F)C(F)(F)F)c2)C(=O)NC(C)(C)C)c(C)c1
[C] Cc1ccc(CNCC[C@H](NC(=O)CNC(=O)c2cccc(C(F)(F)F)c2)C(N)=O)c(C)c1
[D] CCNC(=O)[C@@H](CNC(=O)CNC(=O)c1cccc(C(F)(F)F)c1)NCc1ccc(C)cc1C
[E] CCNC(=O)[C@H](CCN(C)Cc1ccc(C)cc1C)NC(=O)CNC(=O)c1cccc(C(F)(F)F)c1
Prompt: Order the items by recorded pIC50; the first position goes to the largest value. To answer, write out the labels according to the requested order.
Completion: B, E, A, C, D
(B: 7.19, E: 6.82, A: 6.40, C: 5.52, D: 4.66)

[P] CCC(C)(C)NC(=O)[C@H](CNCc1ccc(C)cc1C)NC(=O)CNC(=O)c1cccc(C(F)(F)F)c1
[Q] CCNC(=O)[C@@H](CNCc1ccc(C)cc1C)NC(=O)CNC(=O)c1cccc(C(F)(F)F)c1
[R] CNc1cc(C(=O)NCC(=O)N[C@@H](CNCc2ccc(C)cc2C)C(=O)NC(C)(C)C)cc(C(F)(F)F)c1
[S] Cc1ccc(CNC[C@H](NC(=O)CNC(=O)c2cc(OC(F)(F)F)ccc2N)C(=O)NC(C)(C)C)c(C)c1
Prompt: Order the items by recorded pIC50; the first position goes to the largest value. To answer, write out the labels according to the requested order.
Completion: R, S, P, Q

Where do the numbers come from? From ChEMBL document CHEMBL1139795.
